Give measured IC50 for each item. Keep answers brief.
- experimental-system: PDGFR-β (Homo sapiens)
- Construct: naturally expressing high levels of EGFR (A431), VEGFR-2 (U251), and PDGFR-β (SH-SY5Y); endogenous in cells
- Sequence (P09619 33-1106): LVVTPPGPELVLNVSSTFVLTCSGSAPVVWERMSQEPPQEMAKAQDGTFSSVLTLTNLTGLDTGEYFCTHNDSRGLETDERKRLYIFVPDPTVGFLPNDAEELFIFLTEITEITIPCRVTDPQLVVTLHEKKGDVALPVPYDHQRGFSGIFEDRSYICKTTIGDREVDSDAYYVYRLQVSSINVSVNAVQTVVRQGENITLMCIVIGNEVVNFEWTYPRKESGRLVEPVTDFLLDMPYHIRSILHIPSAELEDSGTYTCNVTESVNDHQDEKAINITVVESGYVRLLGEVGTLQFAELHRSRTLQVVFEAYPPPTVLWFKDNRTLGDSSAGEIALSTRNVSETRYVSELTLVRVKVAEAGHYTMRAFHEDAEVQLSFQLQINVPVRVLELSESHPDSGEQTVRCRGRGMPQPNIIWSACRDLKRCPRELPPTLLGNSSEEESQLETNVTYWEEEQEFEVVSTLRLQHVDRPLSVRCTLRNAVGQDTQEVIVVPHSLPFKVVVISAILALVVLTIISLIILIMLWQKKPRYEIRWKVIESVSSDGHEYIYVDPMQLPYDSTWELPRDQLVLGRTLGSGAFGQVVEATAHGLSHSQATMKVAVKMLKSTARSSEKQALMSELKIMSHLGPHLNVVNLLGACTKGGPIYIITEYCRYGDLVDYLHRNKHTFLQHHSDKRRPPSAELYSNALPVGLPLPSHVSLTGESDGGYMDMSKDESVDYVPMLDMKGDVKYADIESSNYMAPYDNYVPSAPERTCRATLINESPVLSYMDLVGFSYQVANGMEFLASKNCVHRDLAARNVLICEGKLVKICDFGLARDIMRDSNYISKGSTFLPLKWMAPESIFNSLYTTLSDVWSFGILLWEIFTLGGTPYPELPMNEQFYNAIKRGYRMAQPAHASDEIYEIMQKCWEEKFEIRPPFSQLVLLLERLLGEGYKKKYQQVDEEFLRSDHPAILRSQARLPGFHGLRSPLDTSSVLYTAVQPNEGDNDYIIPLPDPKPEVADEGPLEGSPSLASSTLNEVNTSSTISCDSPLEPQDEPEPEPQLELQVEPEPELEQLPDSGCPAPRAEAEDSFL
- assay-summary: Phosphotyrosine ELISA cytoblot, PDGFR-β (SH-SY5Y cells)
- test-context: SH-SY5Y cells, phosphotyrosine ELISA, PDGF-BB stimulation; read-out: PDGFR-β kinase inhibition

# get_value(readout='IC50', item= CCCOc1ccc(N(C)c2nc(C)nc3oc(C)cc23)cc1 )
132 nM

# get_value(readout='IC50', item= CCOc1ccc(N(C)c2nc(C)nc3oc(C)cc23)cc1 )
84 nM

---

- Test system: A431 cancer cells
- assay-summary: A431 cytotoxicity (cell proliferation)
- Type: cell-based
- test-context: Homo sapiens, A-431; A431 cancer cells overexpressing EGFR
property-measured: pIC50
The meaning of pIC50 here: minus log10 of the concentration in molar units.

# get_value(readout='pIC50', item= CCCOc1ccc(N(C)c2nc(C)nc3oc(C)cc23)cc1 [Compound 12] )
7.03
